For each of the compounds below, state its TGI.
System: RXF 393 renal
experiment_notes: NCI tumour cell line growth inhibition, 48 h

**Q:** Looking for the measured TGI of `Oc1ccc(-c2cn3cc(Cl)sc3n2)cc1` , can you help?
**A:** > 100 µM

**Q:** Looking for the measured TGI of `O=C(O)CP(=O)(O)O` , can you help?
**A:** > 100 µM

**Q:** Looking for the measured TGI of `CC1(C)N=C(N)N=C(N)N1c1cccc(CCCCOc2ccccc2)c1` , can you help?
**A:** > 100 µM

**Q:** Looking for the measured TGI of `C(=NCCCN1CCN(CCCN=Cc2cccc3ccccc23)CC1)c1cccc2ccccc12` , can you help?
**A:** 78.2 µM

**Q:** Looking for the measured TGI of `CCCNC(=O)Cn1c(C)cc2ccccc21` , can you help?
**A:** > 100 µM

**Q:** Looking for the measured TGI of CCC1c2[nH]c3ccccc3c2C[C@H]2C(=O)NC(CCCCNC(=O)OC(C)(C)C)C(=O)N12 (stereo not given in full) , can you help?
**A:** > 100 µM

**Q:** Looking for the measured TGI of `O=C(Nc1sccc1S(=O)(=O)c1ccc(Cl)cc1)c1ccccc1` , can you help?
**A:** > 100 µM

**Q:** Looking for the measured TGI of `Cn1c(=O)n2c(-c3ccccc3)c(-c3ccccc3)n2c1=O` , can you help?
**A:** > 100 µM

**Q:** Looking for the measured TGI of O=C(Nc1cccc([N+](=O)[O-])c1)C(=O)C(C(=O)c1ccccc1F)C1OC(=O)C2C=CC=CC21 (stereo not given) , can you help?
**A:** 48.6 µM

**Q:** Looking for the measured TGI of `Cc1sc(Nc2ccccc2[N+](=O)[O-])c(C#N)c1C` , can you help?
**A:** 57.1 µM

###

For each of the compounds below, state its GI50.
System: UACC-62 melanoma
experiment_notes: NCI tumour cell line growth inhibition, 48 h

**Q:** Looking for the measured GI50 of `Cc1ccc(-c2nc(N)c(C#N)c3c2CCOc2c-3ccc3ccccc23)cc1` , can you help?
**A:** 935 nM

**Q:** Looking for the measured GI50 of Cc1nn(-c2ccccc2)c2nc3c(nc12)C1=NCCN1C(c1ccc(Cl)cc1)N3 (stereo not given) , can you help?
**A:** 1950 nM

**Q:** Looking for the measured GI50 of O=C1CCC(N2Cc3c(C#CCCCNC(=O)c4cc5c(o4)C(=O)c4ccccc4C5=O)cccc3C2=O)C(=O)N1 (stereo not given) , can you help?
**A:** 1870 nM

**Q:** Looking for the measured GI50 of `O=C(CN1C(=O)S/C(=C\C(Cl)=C\c2ccccc2)C1=O)NCCc1ccc(O)cc1` , can you help?
**A:** 1700 nM

**Q:** Looking for the measured GI50 of `COc1nc(N)nc2c1ncn2[C@@H]1O[C@H](CO)[C@@H](O)[C@@H]1O` , can you help?
**A:** > 100000 nM

###

System: UACC-62 melanoma
experiment_notes: NCI tumour cell line growth inhibition, 48 h
Where a SMILES comes first, the peptide text is derived from it. [ ]: non-standard residue; d: D form. The star is where a group is joined. NMeF = CN[C@@H](Cc1ccccc1)C(=O)O; NMeV = CN[C@H](C(=O)O)C(C)C; Boc = CC(C)(C)OC(=O)*; OBn = c1ccc(CO*)cc1
endpoint_name: TGI

**Q:** Looking for the measured TGI of COC(=O)C1=C(c2ccc3c(c2)OCO3)OC(c2ccc3c(c2)OCO3)C1 (stereo not drawn) , can you help?
**A:** > 100 µM

**Q:** Looking for the measured TGI of CC1=NN(C(=O)CC(=O)Nc2cccc(C)c2)C(=O)C1N=Nc1ccc(S(=O)(=O)c2ccc(N=NC3C(=O)N(C(=O)CC(=O)Nc4cccc(C)c4)N=C3C)cc2)cc1 (stereo not drawn) , can you help?
**A:** > 100 µM

**Q:** Looking for the measured TGI of `COc1ccc2oc(=O)c(-c3nc4ccccc4o3)cc2c1` , can you help?
**A:** > 100 µM

**Q:** Looking for the measured TGI of `C(=NCCCN1CCN(CCCN=Cc2cccc3ccccc23)CC1)c1cccc2ccccc12` , can you help?
**A:** > 100 µM

**Q:** Looking for the measured TGI of `CCC(CCN)(CCN)[N+](=O)[O-]` , can you help?
**A:** > 100 µM

**Q:** Looking for the measured TGI of CN(C)[C@H]1CC[C@H]2[C@@H]3CCC4C[C@@H](NC(=O)NC(Cc5ccccc5)c5nccs5)CC[C@]4(C)[C@H]3CC[C@]12C (stereo partly drawn) , can you help?
**A:** 3.46 µM

**Q:** Looking for the measured TGI of `NC1=CC(=O)c2nc3ccccc3c3ccnc1c23` , can you help?
**A:** 17.2 µM

**Q:** Looking for the measured TGI of c1ccc(CN2CCCCC(Sc3ccccc3)CC2)cc1 (stereo not drawn) , can you help?
**A:** > 100 µM

**Q:** Looking for the measured TGI of `O=C(O)CP(=O)(O)O` , can you help?
**A:** > 100 µM

**Q:** Looking for the measured TGI of CC(C)[C@@H](C(=O)N1CCC[C@H]1C(=O)OCc1ccccc1)N(C)C(=O)[C@H](C(C)C)N(C)C(=O)[C@H](Cc1ccccc1)N(C)C(=O)[C@H](NC(=O)OC(C)(C)C)C(C)C (Boc-[dV][NMeF][NMeV][NMeV]P-OBn) , can you help?
**A:** > 100 µM

**Q:** Looking for the measured TGI of C=C(Br)C(C)(Br)CCC(Br)C(C)(C)Br (stereo not drawn) , can you help?
**A:** 45.1 µM

**Q:** Looking for the measured TGI of CC(=O)OC1CC2C(C)(C)C(=O)C=C[C@]2(C)C2CCC3(C)C(c4ccoc4)[C@@H](O)[C@H]4O[C@]43[C@]12C (stereo partly drawn) , can you help?
**A:** 32.5 µM

**Q:** Looking for the measured TGI of `NC(=O)Nc1c([N+](=O)[O-])cc(C(F)(F)F)cc1[N+](=O)[O-]` , can you help?
**A:** > 100 µM

Recorded values, source PubChem BioAssay (NCI).
